Biological target: furin, P09958;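 further: purified furin at 1:10 enzyme:substrate in 50 mM HEPES pH 7.5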
Sequence (P09958 whole entry): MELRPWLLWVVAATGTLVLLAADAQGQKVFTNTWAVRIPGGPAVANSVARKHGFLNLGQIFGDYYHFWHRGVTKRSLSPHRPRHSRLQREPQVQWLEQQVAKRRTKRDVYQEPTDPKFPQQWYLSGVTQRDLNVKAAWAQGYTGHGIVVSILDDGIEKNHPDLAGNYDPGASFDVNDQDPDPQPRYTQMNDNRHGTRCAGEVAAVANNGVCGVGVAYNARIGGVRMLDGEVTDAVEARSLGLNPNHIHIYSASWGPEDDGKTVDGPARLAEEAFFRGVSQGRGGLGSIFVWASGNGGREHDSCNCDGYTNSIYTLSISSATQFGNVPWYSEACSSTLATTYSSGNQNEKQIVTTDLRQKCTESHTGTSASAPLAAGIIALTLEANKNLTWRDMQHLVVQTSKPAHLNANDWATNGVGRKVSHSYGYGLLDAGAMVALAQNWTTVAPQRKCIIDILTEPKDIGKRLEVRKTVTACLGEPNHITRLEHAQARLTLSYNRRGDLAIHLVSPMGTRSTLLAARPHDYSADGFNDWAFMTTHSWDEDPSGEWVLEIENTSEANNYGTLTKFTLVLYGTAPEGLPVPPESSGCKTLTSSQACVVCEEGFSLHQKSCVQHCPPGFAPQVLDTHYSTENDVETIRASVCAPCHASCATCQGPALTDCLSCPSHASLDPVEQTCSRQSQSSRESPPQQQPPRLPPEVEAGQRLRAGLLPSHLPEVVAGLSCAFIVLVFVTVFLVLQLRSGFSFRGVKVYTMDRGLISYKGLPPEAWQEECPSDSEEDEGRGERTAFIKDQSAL
Assay: furin cleavage Z-score vs untreated control; higher = more cleavage, active = 3.5 or more, inactive = 1 or less, 8 variable residues between constant flanks
Conditions: 30 min
The list shows a part of the results. How many sequences the whole screen found active is unknown.
I would appreciate it if you answered using one of these outcomes: 1 (yes) (active), 0 (no) (inactive)

What call does the record list for CADNKRMARNAGNASASA [FS-984] ?
1 (yes)

Follow-up item: CAMRECSQHLAGNASASA [HC1693]
0 (no)

// repeat for CARWKRPIDLAGNASASA [FS-3131] and report
0 (no)

What do we get for CAEVGTSTWVAGNASASA [HC2196] ?
0 (no)

Next: CARWKRPAFTAGNASASA [FS-1806]
0 (no)

What about this sequence? CASNPCSAHLAGNASASA [HC2501]
0 (no)
